reported conditions: in water, 308.15 K
measured attribute: solubility (mole fraction)
Enter a number only.

Endpoint output: solubility (mole fraction) of Cc1[nH]nc2cc([N+](=O)[O-])ccc12 . Value? 9.98e-05

###

reported conditions: in water, 328.15 K
measured attribute: solubility (mole fraction)
Simply state the number, no unit and no words.

// query solubility (mole fraction) value for entry Cc1[nH]nc2cc([N+](=O)[O-])ccc12 0.000222

###

reported conditions: in n-propanol, 298.15 K
measured attribute: solubility (mole fraction)
Give only the figure.

Fill in: solubility (mole fraction) of Cc1[nH]nc2cc([N+](=O)[O-])ccc12 is ___ 0.00901
